- Tested on: OVCAR-3 ovarian
- protocol summary: NCI tumour cell line growth inhibition, 48 h; in the data active = GI50 below about 0.43 µM; inactive = the rest
Outcomes: active, inactive

O=C(CCl)c1ccc([N+](=O)[O-])o1 ... inactive
NC(=O)[C@H]1CCN(c2ncnc(N)c2F)C[C@@H]1N1CCC[C@@H](Nc2cc(Cl)cc(C(F)(F)F)c2)C1=O ... inactive
CCN1C(=O)N(CC)C2C1NN=c1s/c(=C3\C(=O)N(C(C)C)c4ccccc43)c(=O)n12 (centres undefined) ... active
CCN(CC)c1ccc(/C=C/c2cc(C)c3ccccc3n2)cc1 ... inactive
N=C(N)c1nn(C2OC(CO)C(O)C2O)c2nc[nH]c(=O)c12 (centres undefined) ... inactive
COc1ccc2c(c1)CCC1C2CCC2(C)C1CCC2(O)CNC(=O)CCCCC1CCSS1 (centres undefined) ... inactive
COc1ccc(C(=O)/C=C/c2ccc(Cl)cc2)cc1S(=O)(=O)Nc1c(N)nc(SC)[nH]c1=O ... inactive
COc1cc2nc(Cl)nc(Nc3cccc(C(=O)/C=C/c4ccccc4)c3)c2cc1OC ... inactive
CCCN1C(=O)/C(=c2\sc3n(c2=O)C2C(NN=3)N(CC)C(=O)N2CC)c2ccccc21 (centres undefined) ... active

###

- Tested on: LOX IMVI melanoma
- protocol summary: NCI tumour cell line growth inhibition, 48 h
parameter measured: TGI (µM)

COc1ccc(/C=C2/C(C)=NN(c3cccc(Cl)c3)/C2=N/c2nc3ccccc3s2)cc1 ... 33.4
OCC1OC(n2ccc3c2ncn2ncnc32)C(O)C1O (configuration not stated) ... 1.76
CCOP(=O)(OCC)C1CCCCOC1=O (configuration not stated) ... 40
NC(=O)[C@H]1CCN(c2ncnc(N)c2F)C[C@@H]1N1CCC[C@@H](Nc2cc(Cl)cc(C(F)(F)F)c2)C1=O ... 27.1
Nc1ncnc2c1ccn2C1OC2COP(=O)(O)OC2C1O (configuration not stated) ... 1.34
CC1=CC(=O)c2c(O)cccc2C1=O ... 3.32

###

- System: A549 NSCLC
- protocol summary: NCI tumour cell line growth inhibition, 48 h
parameter measured: GI50

C=C(C)[C@@H]1CC[C@]2(C(=O)NCCCN)CC[C@]3(C)[C@H](CC[C@@H]4[C@@]5(C)CC[C@H](O)C(C)(C)[C@@H]5CC[C@]43C)[C@@H]12 ... 19.6 µM
CC[C@H](Nc1nc(N)nc(C)c1C#N)c1nc2cccc(CN(C)c3ncc(C(=O)NO)cn3)c2c(=O)n1-c1ccccc1 ... 2.06 µM
O=S(=O)(c1ccc(NC(=S)NCc2cccnc2)cc1)N1CCCCC1 ... 11 µM
CC[C@](C)(O)C(=O)O[C@H]1C(=O)O[C@@H]2C[C@H]3C(C)=CC(=O)[C@@H](O)[C@]3(C)[C@H]3[C@@]4(O)OC[C@]32[C@@H]1[C@@H](C)[C@H]4O ... 2.75 µM
CCc1c(C)[nH]c(/C=C2\N=C(c3ccc[nH]3)C=C2OC)c1C ... 0.498 µM
N#CC(C#N)=CN1CCN(C(=O)c2ccco2)C1=S ... 13.5 µM
CCc1ccc(NC(=O)Nc2c[nH]c3ccccc23)cc1 ... 6.26 µM
C=C(C)[C@@H]1CC=C(CO)CC1 ... > 10 µM
CC1(C)CCC2(C(=O)OC3OC(CO)C(O)C(O)C3O)CC[C@]3(C)C(=CCC4C5(C)CC[C@H](OC6OC(C(=O)O)C(O)C(O)C6O)C(C)(C)C5CCC43C)C2C1 (some centres undefined) ... 1.83 µM
